measurement.target: NPY Y1 receptor (Homo sapiens, UniProt P25929)
Construct: A membrane sample prepared from SK-N-MC cells derived from human neuroblastoma; endogenous in cells
Sequence (P25929 whole entry): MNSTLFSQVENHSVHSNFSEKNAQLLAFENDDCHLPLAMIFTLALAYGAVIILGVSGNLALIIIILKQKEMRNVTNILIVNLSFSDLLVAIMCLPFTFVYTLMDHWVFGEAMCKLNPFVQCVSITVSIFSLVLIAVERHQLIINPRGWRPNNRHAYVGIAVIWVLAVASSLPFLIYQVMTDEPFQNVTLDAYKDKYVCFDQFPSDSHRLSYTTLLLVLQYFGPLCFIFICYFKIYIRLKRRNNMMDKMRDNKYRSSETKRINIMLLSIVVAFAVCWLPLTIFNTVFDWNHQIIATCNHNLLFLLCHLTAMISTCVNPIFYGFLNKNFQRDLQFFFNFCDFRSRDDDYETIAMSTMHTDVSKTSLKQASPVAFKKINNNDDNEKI
test.details: NPY Binding Inhibition Test ([125I] peptide YY binding to SK-N-MC cell membranes)
test.parameters: SK-N-MC membrane, 25° C., 2 hours, pH 7.4, 20,000 cpm [125I] peptide YY; read-out: IC50 (50% inhibition concentration against specific [125I] peptide YY binding)
measure.name: IC50 (nM)
Answers are plain numbers, in nM.

I have this compound here, C=CCOC(=O)Nc1cccc(CNc2cc(N3CCOCC3)cc(CSc3nnc(CC)s3)n2)c1 , and I need its recorded IC50.
0.33
